System: S. cerevisiae CIT2-GFP strain, flow cytometry GFP, 3 h
Test: CIT2-GFP expression modulators in yeast, SAR follow-up, flow cytometry, KU analogs, dose response (AID 488827)
Calls of active or inactive are those of the source.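 How the source made its calls: active means EC50 at or below 33 µM; inactive means the rest.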
Outcome codes: active, inactive

O=S(=O)(CCN(CCS(=O)(=O)C(F)(F)F)CC1CCCO1)C(F)(F)F (stereo unspecified) = inactive
CN(C)CCCNc1nc(N)c([N+](=O)[O-])c(Nc2cccc(F)c2)n1 = inactive
CNc1nc(N)c([N+](=O)[O-])c(Nc2ccccc2OC)n1 = active
O=[N+]([O-])c1cc(Cl)c2cccnc2c1O = inactive
O=C(Oc1c(Cl)cc(Cl)c2cccnc12)c1ccco1 = inactive
COc1ccc([N+](=O)[O-])c(S(=O)(=O)c2ccccc2)n1 = inactive
CCOC(=O)CSC1=NC(=O)/C(=C\c2ccc(Cl)cc2)S1 = inactive
CNc1nc(N)c([N+](=O)[O-])c(Nc2cccc(F)c2)n1 = active
Nc1nc(NCCc2ccccc2)nc(Nc2cccc(F)c2)c1[N+](=O)[O-] = inactive
CCOC(=O)CCS(=O)(=O)c1nc(-c2ccccc2)cc(C(F)(F)F)n1 = inactive
Nc1nc(Nc2cccc(F)c2)nc(Nc2cccc(F)c2)c1[N+](=O)[O-] = inactive

###

Tested on: S. cerevisiae CIT2-GFP strain, flow cytometry GFP, 3 h
Assay: CIT2-GFP expression modulators in yeast, SAR follow-up, flow cytometry, KU analogs, dose response (AID 488827)
The source made the active and inactive calls.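 Rule for the calls: active = EC50 at or below 33 µM; inactive = the rest.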
Below, each entry is listed alongside its reported EC50.
READOUT_LABEL: EC50

Oc1c(I)cc(I)c2cccnc12 = 166 µM (inactive)
COc1ccc([N+](=O)[O-])c(S(=O)(=O)c2ccc(Cl)cc2)n1 = 124 µM (inactive)
O=C(Oc1ccnc2cc(Cl)ccc12)N1CCCCCC1 = 298 µM (inactive)
O=C(Nc1nc(-c2ccccn2)cs1)c1cc2ccccc2o1 = 60.6 µM (inactive)
C/C(=N\NC(=O)c1ccc(C(C)(C)C)cc1)c1ccccn1 = 71 µM (inactive)
CC(C)(C)C(=O)NC(=S)NNC(=O)c1ccc(-c2ccccc2)cc1 = 66.9 µM (inactive)
CCOC(=O)CS(=O)(=O)c1nc(-c2ccccc2)cc(C(F)(F)F)n1 = 109 µM (inactive)
Cc1ccc(C(c2cc(Cl)c3cccnc3c2O)N2CCN(C)CC2)cc1 (configuration not stated) = 45.9 µM (inactive)
CNc1nc(N)c([N+](=O)[O-])c(Nc2ccc(F)cc2)n1 = 56.3 µM (inactive)
Clc1ccc(N=c2ssnc2Cl)cc1 = 81.1 µM (inactive)
CN1CCN(C(c2ccc(C(F)(F)F)cc2)c2ccc3cccnc3c2O)CC1 (configuration not stated) = 87.1 µM (inactive)
O=C1ON=C(c2ccccc2)/C1=C\c1ccco1 = 188 µM (inactive)
